These data points were gathered from patent US20250042891A1.

System: HCC1395
Experiment: CTG assay for proliferation inhibition of cell lines
Type: cell-based
Settings: HCC1395, 7 days, CellTiter Glo
measurement-type: IC50 (µM)

Below, each entry is followed by its recorded IC50 result.
# compound, IC50 [µM]
rows = [
    ("CC(C)S(=O)(=O)N1CCN(c2cc(S(=O)(=O)NC3(C#N)CC3)cc3c(-c4nnc(C(F)(F)F)s4)nn(C)c23)CC1", 0.284),
    ("Cn1nc(-c2nnc(C(F)F)s2)c2cc(S(=O)(=O)NC3(C#N)CC3)cc(C3=CCN(S(=O)(=O)C4CCOCC4)CC3)c21", 0.222),
    ("CC(C)S(=N)(=O)N1CC=C(c2cc(S(=O)(=O)NC3(C#N)CC3)cc3c(-c4nnc(C(F)F)s4)nn(C)c23)CC1 (centres unmarked)", 0.691),
    ("CC(C)S(=O)(=O)N1CCC2(c3cc(S(=O)(=O)NC4(C#N)CC4)cc4c(-c5nnc(C(F)F)s5)nn(C)c34)OC2C1 (centres unmarked)", 0.432),
    ("CC(C)S(=O)(=O)N1CCC(c2cc(S(=O)(=O)NC3(C#N)CC3)cc3c(-c4nnc(C(F)(F)F)s4)nn(C)c23)=C(CO)C1", 0.0462),
    ("CC(C)S(=O)(=O)C1CC=C(c2cc(S(=O)(=O)NC3(C#N)CC3)cc3c(-c4nnc(C(F)F)s4)nn(C)c23)CC1 (centres unmarked)", 0.641),
]

[P] CC(C)[S+]([O-])C1CC=C(c2cc(S(=O)(=O)NC3(C#N)CC3)cc3c(-c4nnc(C(F)F)s4)nn(C)c23)CC1 (centres unmarked)
[Q] CC(C)S(=O)(=O)N1Cc2cn(-c3cc(S(=O)(=O)NC4(C#N)CC4)cc4c(-c5nnc(C(F)F)s5)nn(C)c34)nc2C1
[R] Cn1nc(-c2nnc(C(F)F)s2)c2cc(S(=O)(=O)NC3(C#N)CC3)cc(C3=CCN(S(=O)(=O)C4CNC4)CC3)c21
Challenge: Exam item: list the entries in increasing order of IC50. The labels, placed in the requested order, form the answer.
Response given: P, Q, R
(P: 0.787 µM, Q: 1.38 µM, R: 3.95 µM)

---

System: NCI-H460
Assay: CTG assay for proliferation inhibition of cell lines
Format: cell-based
Conditions: Homo sapiens, 168 h; NCI-H460, 7 days, CellTiter Glo
measurement-type: IC50 (µM)

Below, each entry is followed by its recorded IC50 result.
# compound, test-target, IC50 (µM)
records = [
    ("Cn1nc(-c2nnc(C(F)F)s2)c2cc(S(=O)(=O)NC3(C#N)CC3)cc(C3=CCN(S(=O)(=O)C4(C)CC4)CC3)c21", "NCI-H460", 0.122),
    ("CC(C)S(=O)(=O)N1CC=C(c2cc(S(=O)(=O)NC3(C#N)CC3)cc3c(-c4nnc(C(F)(F)F)s4)nn(Cc4ccncc4)c23)CC1", "NCI-H460", 0.27),
    ("CC(C)S(=O)(=O)N1CC=C(c2cc(S(=O)(=O)NC3(C#N)CC3)cc3c(-c4nnc(C(F)(F)F)s4)nn(CC4COC4)c23)CC1", "NCI-H460", 0.115),
]

[P] Cn1nc(-c2nnc(C(F)F)s2)c2cc(S(=O)(=O)NC3(C#N)CC3)cc(C3=CCN(S(=O)(=O)C4CCC4)CC3)c21
[Q] CC(C)C(=O)N1CCN(c2cc(S(=O)(=O)NC3(C#N)CC3)cc3c2cnn3-c2nnc(C(F)F)s2)CC1 [1′, reference compound]
Challenge: // pick min by IC50: P , Q Respond with the label that goes with your answer.
Response given: P
(P: 0.148 µM, Q: 0.796 µM)
